test system: Rhesus monkey; assay: Cmax in rhesus monkey at 1 mg/kg, iv; format: ADME, organism-based, Macaca mulatta; parameters: dose 1 mg/kg, route intravenous; details: in vivo
recorded-endpoint: Cmax (µM)
Write the value in µM as a bare number.

Data point: N#Cc1cc(F)cc(N2CCCc3oc(-c4ccccn4)nc3C2)c1 ; Cmax = 5.08

====

assay: Cmax in Sprague-Dawley rat at 10 mg/kg, po; assay type: ADME, organism-based; parameters: dose 10 mg/kg, route oral; conditions: in vivo
recorded-endpoint: Cmax (µM)
Entry rule: numbers only, all in µM.

Just so you know, measured Cmax for N#Cc1cc(F)cc(N2CCCc3oc(-c4ccccn4)nc3C2)c1 came out at 2.73
